- target_system: Jak2 (UniProt O60674)
- Sequence (O60674 whole entry, looked up): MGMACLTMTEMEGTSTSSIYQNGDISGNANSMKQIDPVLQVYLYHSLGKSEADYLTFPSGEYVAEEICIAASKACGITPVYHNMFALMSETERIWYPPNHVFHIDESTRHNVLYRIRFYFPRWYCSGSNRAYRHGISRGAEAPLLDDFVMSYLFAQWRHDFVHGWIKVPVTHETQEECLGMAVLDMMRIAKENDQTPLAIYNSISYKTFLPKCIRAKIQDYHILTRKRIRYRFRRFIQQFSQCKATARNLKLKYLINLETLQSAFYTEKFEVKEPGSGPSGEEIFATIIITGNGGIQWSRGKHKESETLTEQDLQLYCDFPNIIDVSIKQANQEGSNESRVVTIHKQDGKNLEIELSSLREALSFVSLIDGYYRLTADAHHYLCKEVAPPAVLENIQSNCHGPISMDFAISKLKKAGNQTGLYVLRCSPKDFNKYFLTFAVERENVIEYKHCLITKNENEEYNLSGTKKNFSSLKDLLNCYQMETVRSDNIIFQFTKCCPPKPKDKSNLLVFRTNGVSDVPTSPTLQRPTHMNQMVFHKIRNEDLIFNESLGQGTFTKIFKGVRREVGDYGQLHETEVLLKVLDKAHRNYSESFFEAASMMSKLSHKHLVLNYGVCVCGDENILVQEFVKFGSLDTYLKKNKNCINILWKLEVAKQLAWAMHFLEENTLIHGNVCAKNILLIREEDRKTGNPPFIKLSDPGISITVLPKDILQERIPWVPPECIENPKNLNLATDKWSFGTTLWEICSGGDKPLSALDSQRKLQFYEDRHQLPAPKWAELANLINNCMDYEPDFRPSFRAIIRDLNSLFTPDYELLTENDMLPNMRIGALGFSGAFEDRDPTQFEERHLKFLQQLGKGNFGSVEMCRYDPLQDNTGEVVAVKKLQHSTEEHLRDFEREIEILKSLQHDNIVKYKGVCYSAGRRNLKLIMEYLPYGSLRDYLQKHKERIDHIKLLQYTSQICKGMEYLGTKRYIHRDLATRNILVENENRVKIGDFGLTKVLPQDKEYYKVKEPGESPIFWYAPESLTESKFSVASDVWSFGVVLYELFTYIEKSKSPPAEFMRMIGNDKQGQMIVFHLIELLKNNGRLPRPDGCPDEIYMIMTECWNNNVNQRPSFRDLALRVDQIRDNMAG
- assay_remarks: phosphorylation enrichment, bacterial display (enrichment ratio); higher = better substrate or ligand; peptides without Tyr show the background
Record form. Attribute: phosphorylation enrichment. Fill in for each entry.
Give bare numbers.

- chain_sequence: "SLEKSYKLPDG [ACTA1_Y242_E243K]"
  test_result: 0.649
- chain_sequence: "GKSHIYFWTLE [EML2_Y230]"
  test_result: 1.3
- chain_sequence: "NTDETYSIDNE [TUBB2B_Y200_C201S]"
  test_result: 1.23
- chain_sequence: "ETCLAYMEKRI [TEKT1_Y118_R119M]"
  test_result: 1.17
- chain_sequence: "HAVFIYDICHV [TWNK_Y508_V507I_YF]"
  test_result: 1.26

Provide reported phosphorylation enrichment for each item, in the same order as listed.
1. GAPATYEGDAR [CACNA1A_Y1013]
2. EKMWSYTKSAE [GRIA3_Y705_M706T]
3. ESMLRYEVFGG [STOX1_Y607_YF]
4. MFNPMYALFRT [HUWE1_Y4078]
5. VTSLKYSTPPY [BRIP1_Y916_S919P]
6. FESPRYLQVHI [FANCA_Y488]

Result:
0.497
0.592
1.09
0.827
0.565
0.867

Provide reported phosphorylation enrichment for each item, in the same order as listed.
1. HNQDGYSFLSR [LDLR_Y845_P848L_YF]
2. FETSHYLASPD [CTNND2_Y1217_P1218L_YF]

Result:
1.25
0.73

Provide reported phosphorylation enrichment for each item, in the same order as listed.
1. ESMNIYLQTSP [NAT1_Y208_T207I]
2. FISLIYTNFEA [GSTP1_Y109_YF]
3. PEADKYRLTFA [FGG_Y300_YF]
4. ALLVFYAATIA [SLC20A2_Y187_P184L]
5. IFLADYRIMEG [ALOX12B_Y318_YF]
6. EEGNPSFSSAR [MCCC2_Y520_Y520S_YF]
7. MLEVSYVDRNS [F10_Y384_P383S]
8. SPRDTYSDRSG [CTPS1_Y567]

Result:
1: 1.17; 2: 1.3; 3: 1; 4: 1.04; 5: 0.782; 6: 0.826; 7: 0.876; 8: 0.521

Provide reported phosphorylation enrichment for each item, in the same order as listed.
1. LNAGAYSKVVE [PPT1_Y172_Q177E]
2. IVAEYYDNLPH [DEGS1_Y284_A280V]

Result:
0.541
1.53

----------
- target_system: Jak2 (UniProt O60674)
- assay_remarks: phosphorylation enrichment, bacterial display (enrichment ratio); higher = better substrate or ligand; peptides without Tyr show the background
measurement_label: phosphorylation enrichment

Observe how each entry below is paired with its result.
- chain_sequence: "PGVNFYFQVSA"
  test_result: 1.61
- chain_sequence: "YLEKYYKFGCR [NNMT_Y25_S29C]"
  test_result: 1.34
- chain_sequence: "VNTTLYEKFTY [TEK_Y1108]"
  test_result: 0.804

Provide reported phosphorylation enrichment for each item, in the same order as listed.
1. VKMLEYLGKDV [CASP5_Y74]
2. FDNSVYQKTTE [LDLR_Y828_P826S]
3. CTLLPYYSAPV [DGKE_Y269_R273P]

Result:
1. 0.591
2. 0.673
3. 1.54

// field: phosphorylation enrichment; key: EEDPEYKKKFR [FAM161A_Y278] ; value = 1.01

----------
- target_system: Fyn (UniProt P06241)
- Sequence (P06241 whole entry, looked up): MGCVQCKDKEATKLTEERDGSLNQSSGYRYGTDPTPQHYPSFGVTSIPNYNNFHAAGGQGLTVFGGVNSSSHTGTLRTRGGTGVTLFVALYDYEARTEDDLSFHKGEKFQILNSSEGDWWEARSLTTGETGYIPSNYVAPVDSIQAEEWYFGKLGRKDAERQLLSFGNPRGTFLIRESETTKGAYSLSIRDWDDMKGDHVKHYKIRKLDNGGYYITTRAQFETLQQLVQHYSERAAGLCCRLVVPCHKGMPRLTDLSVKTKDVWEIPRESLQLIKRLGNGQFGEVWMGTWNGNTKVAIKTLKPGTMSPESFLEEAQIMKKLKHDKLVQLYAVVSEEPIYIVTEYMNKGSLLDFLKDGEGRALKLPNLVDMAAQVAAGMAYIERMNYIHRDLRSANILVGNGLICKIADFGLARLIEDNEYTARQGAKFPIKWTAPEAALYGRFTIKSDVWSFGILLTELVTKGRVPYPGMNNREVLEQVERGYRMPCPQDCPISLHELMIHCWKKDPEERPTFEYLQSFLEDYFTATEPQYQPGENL
- assay_remarks: phosphorylation enrichment, bacterial display (enrichment ratio); higher = better substrate or ligand; peptides without Tyr show the background
Classification field: Yes = phosphorylation enrichment at or over 0.6; No = phosphorylation enrichment under 0.6.

Field: example entries. Status: answers known.
- chain_sequence: "MSRFIYSTDFF [NTRK1_Y676_D674Y_YF]"
  target_system: "Fyn (UniProt P06241)"
  classification: "Yes"
- chain_sequence: "MCITQYERESQ [PRNP_Y218]"
  target_system: "Fyn (UniProt P06241)"
  classification: "No"
- chain_sequence: "RVGNMYVRGLS [ABCG8_Y209]"
  target_system: "Fyn (UniProt P06241)"
  classification: "No"
- chain_sequence: "LRNRVYEVPVE [SLC26A3_Y756]"
  target_system: "Fyn (UniProt P06241)"
  classification: "Yes"
- chain_sequence: "GGGMFYPLDLF"
  target_system: "Fyn (UniProt P06241)"
  classification: "No"

Turning now to a further sequence:
Query: Please check the record QSHKVYFQHLL [POR_Y604_V605F] and state if its phosphorylation enrichment is at or above 0.6.
Result: No

----------
- Test system: c-Abl (mouse)
- assay_remarks: phosphorylation enrichment, bacterial display (enrichment ratio); higher = better substrate or ligand; peptides without Tyr show the background
Classification field: Criterion met = phosphorylation enrichment at or over 0.6; Criterion not met = phosphorylation enrichment under 0.6.

- chain_sequence: "LPKEQYLYTKE [AFG3L2_Y614]"
  classification: "Criterion met"
- chain_sequence: "FDDDDYDTDFV [BLM_Y296]"
  classification: "Criterion met"
- chain_sequence: "EYLQKYKGFKI [SYNE1_Y6953]"
  classification: "Criterion not met"
- chain_sequence: "STQAHYRLSAF [ADAMTS9_Y100_S96T]"
  classification: "Criterion not met"
- chain_sequence: "DEDEEYEYMNR [ERBB3_Y1197]"
  classification: "Criterion met"
- chain_sequence: "PGLSSYGVPGS [FLNB_Y1530_A1534G]"
  classification: "Criterion met"

Query: Please check the record SGGCSYGSGGG [KRT1_Y539_G537C] and state if its phosphorylation enrichment is at or above 0.6.
Result: Criterion met

Query: Please check the record FCGFSYDDIPD [TMEM230_Y112_R108C_YF] and state if its phosphorylation enrichment is at or above 0.6.
Result: Criterion met

Query: Please check the record LVVFEYMRHGD [NTRK1_Y591_M587V] and state if its phosphorylation enrichment is at or above 0.6.
Result: Criterion not met

Query: Please check the record PLDNLYAEPAV [PRPS1_Y146_V142L] and state if its phosphorylation enrichment is at or above 0.6.
Result: Criterion met

Query: Please check the record PRDSGYSYETI [MAP1B_Y1921_S1917R] and state if its phosphorylation enrichment is at or above 0.6.
Result: Criterion not met

----------
- target_system: Hck (UniProt P08631)
- Sequence (P08631 whole entry, looked up): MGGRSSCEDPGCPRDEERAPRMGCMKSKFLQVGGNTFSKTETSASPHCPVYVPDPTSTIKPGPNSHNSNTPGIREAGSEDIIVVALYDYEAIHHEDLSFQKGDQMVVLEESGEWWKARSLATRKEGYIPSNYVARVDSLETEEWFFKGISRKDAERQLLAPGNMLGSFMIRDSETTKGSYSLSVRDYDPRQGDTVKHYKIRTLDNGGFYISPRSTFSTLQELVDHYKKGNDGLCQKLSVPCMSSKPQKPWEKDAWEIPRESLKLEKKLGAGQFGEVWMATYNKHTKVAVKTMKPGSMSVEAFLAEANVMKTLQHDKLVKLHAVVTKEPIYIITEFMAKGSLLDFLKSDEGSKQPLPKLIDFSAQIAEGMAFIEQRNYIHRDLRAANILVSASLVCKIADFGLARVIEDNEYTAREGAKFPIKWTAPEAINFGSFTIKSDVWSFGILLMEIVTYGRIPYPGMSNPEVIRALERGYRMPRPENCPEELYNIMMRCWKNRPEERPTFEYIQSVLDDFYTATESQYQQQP
- assay_remarks: phosphorylation enrichment, bacterial display (enrichment ratio); higher = better substrate or ligand; peptides without Tyr show the background
Classification field: Criterion met = phosphorylation enrichment at or over 0.5; Criterion not met = phosphorylation enrichment under 0.5.

Field: example entries. Status: answers known.
- chain_sequence: "QKMADYSNKLY [PDPR_Y104]"
  target_system: "Hck (UniProt P08631)"
  classification: "Criterion met"
- chain_sequence: "YPLELYERVRI [PRKCG_Y312_M317I]"
  target_system: "Hck (UniProt P08631)"
  classification: "Criterion met"
- chain_sequence: "TDLAFYLVCKG [ASL_Y376_R379C_YF]"
  target_system: "Hck (UniProt P08631)"
  classification: "Criterion met"
- chain_sequence: "CPFNLYAAQLS [HGD_Y40_E42A_YF]"
  target_system: "Hck (UniProt P08631)"
  classification: "Criterion met"
- chain_sequence: "SRASFYRKGGC [ALK_Y1283_Y1278S_YF]"
  target_system: "Hck (UniProt P08631)"
  classification: "Criterion not met"
- chain_sequence: "LLARLYRGQAL [FGFR4_Y390_G388R]"
  target_system: "Hck (UniProt P08631)"
  classification: "Criterion met"
- chain_sequence: "AKLDIYKRKVE [VWA3B_Y918_N916D]"
  target_system: "Hck (UniProt P08631)"
  classification: "Criterion not met"
- chain_sequence: "IFLADYRIMEG [ALOX12B_Y318_YF]"
  target_system: "Hck (UniProt P08631)"
  classification: "Criterion not met"

Query: Please check the record AEEPIYIIVPA [BMXtide_2014] and state if its phosphorylation enrichment is at or above 0.5.
Result: Criterion met

Query: Please check the record VRSVDYVLFRS [FAM189B_Y361] and state if its phosphorylation enrichment is at or above 0.5.
Result: Criterion met

----------
- target_system: Grb2 SH2 (UniProt P62993)
- Sequence (P62993 whole entry, looked up): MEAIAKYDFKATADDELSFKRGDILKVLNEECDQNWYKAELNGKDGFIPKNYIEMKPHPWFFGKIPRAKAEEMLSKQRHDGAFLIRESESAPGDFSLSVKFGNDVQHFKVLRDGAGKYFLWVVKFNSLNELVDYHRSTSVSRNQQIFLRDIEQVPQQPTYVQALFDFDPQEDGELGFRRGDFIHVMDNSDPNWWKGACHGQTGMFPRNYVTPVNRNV
- assay_remarks: SH2 binding enrichment of the phosphorylated peptide, bacterial display (enrichment ratio); higher = better substrate or ligand; peptides without Tyr show the background
Record form. Attribute: SH2 binding enrichment. Fill in for each entry.
Numbers only.

Observe how each entry below is paired with its result.
- chain_sequence: "LKYAIYFEARE [LAMA2_Y1258]"
  SH2 binding enrichment: 0.907
- chain_sequence: "PTDGVYVMPTV [MYO7A_Y1668_S1666G]"
  SH2 binding enrichment: 0.885
- chain_sequence: "SLEKSYKLPDG [ACTA1_Y242_E243K]"
  SH2 binding enrichment: 0.889

Provide reported SH2 binding enrichment for each item, in the same order as listed.
1. GGFNNYGFGND [HNRNPH3_Y159_YF]
2. QWPGPYDRPGA [HNRNPH2_Y210_R206W]

Result:
1: 0.875; 2: 0.885

Where do the numbers come from? From the supplement of paper PMC10065799.
